system: A-431 skin cancer cells; assay: Cancer cell survival (CellTiter-Glo), A-431; type: cell-based; set-up: unit not given here; details: A-431 cells; 1 μM; 72 h; Table 9.2

# COMPOUND, Cell survival at given concentration
measured = [
    ("CCCCC(=O)O [valerate]", 1.01),
    ("CC(O)CCO (stereo not shown)", 1.02),
    ("CC(O)CC(=O)O (stereo not drawn) [beta-hydroxybutyrate]", 1.01),
    ("CC(=O)O [acetate]", 1.02),
]

====

tested on: AGS stomach cancer cells; assay: Cancer cell survival (CellTiter-Glo), AGS; type: cell-based; design: unit not given here; settings: 32 μM, Table 10.2
PARAMETER: Cell survival at given concentration

# COMPOUND, REPORTED VALUE
measured = [
    ("CC(O)CCO (stereo not shown)", 1.05),
    ("CCCCC(=O)O [valerate]", 1.03),
    ("CC(=O)O [acetate]", 1.03),
    ("CC(O)CC(=O)O (stereo not drawn) [beta-hydroxybutyrate]", 1.02),
]

====

The entries below are paired with their reported IC50.
system: AGS stomach cancer cells; test: Cancer cell survival (CellTiter-Glo), AGS; type: cell-based; conditions: Table 10.1
PARAMETER: IC50 (µM)

# COMPOUND, ASSAYED TARGET, RESULT UNITS, REPORTED VALUE
data = [
    ("Oc1ccc(C=Cc2cc(O)cc(O)c2)cc1", "AGS stomach cancer cells", "µM", 252),
    ("Oc1cc(O)c2c(c1)O[C@H](c1cc(O)c(O)c(O)c1)[C@H](O)C2 [EGC, epigallocatechin]", "AGS stomach cancer cells", "µM", 477),
    ("O=c1cc(-c2ccc(O)c(O)c2)oc2cc(O)cc(O)c12", "AGS stomach cancer cells", "µM", 68.2),
    ("O=C(O[C@@H]1Cc2c(O)cc(O)cc2O[C@@H]1c1cc(O)c(O)c(O)c1)c1cc(O)c(O)c(O)c1 [EGCG, epigallocatechin gallate]", "AGS stomach cancer cells", "µM", 33.2),
    ("O=c1oc2cc(O)ccc2c2cc(O)c(O)cc12", "AGS stomach cancer cells", "µM", 56),
]

====

test system: T24 bladder cancer cells; assay: Cancer cell survival (CellTiter-Glo), T24; assay type: cell-based; conditions: 1 mM, 72 h

# MOLECULE, Cell survival at given concentration
records = [
    ("CC(O)CC(=O)O (stereo not drawn) [beta-hydroxybutyrate]", 0.99),
    ("CCCCC(=O)O [valerate]", 0.89),
    ("CC(O)CCO (stereo not shown)", 1.02),
    ("CC(=O)O [acetate]", 0.99),
]

====

The entries below are paired with their reported viability at 32 µM.
tested on: PC-3 prostate cancer cells; experiment: Cancer cell survival (CellTiter-Glo), PC-3; type: cell-based; conditions: Homo sapiens; PC-3 cells; 32 μM; 72 h; read-out: Cell survival at given concentration
PARAMETER: viability at 32 µM

# COMPOUND, REPORTED VALUE
measured = [
    ("O=C[C@H](O)[C@@H](O)[C@@H](O)CO", "101%"),
    ("O=c1c(O)c(-c2cc(O)c(O)c(O)c2)oc2cc(O)cc(O)c12", "101%"),
    ("Oc1cc(O)c2c(c1)O[C@H](c1cc(O)c(O)c(O)c1)[C@H](O)C2 [EGC, epigallocatechin]", "98%"),
    ("O=c1cc(-c2ccc(O)cc2)oc2cc(O)cc(O)c12", "98%"),
    ("Oc1ccc(C=Cc2cc(O)cc(O)c2)cc1", "96%"),
    ("O=c1cc(-c2ccc(O)c(O)c2)oc2cc(O)cc(O)c12", "74%"),
]

====

test system: PC-3 prostate cancer cells; test: Cancer cell survival (CellTiter-Glo), PC-3; type: cell-based; settings: PC-3 cells; 317 μM; 72 h
PARAMETER: Cell survival at given concentration

# COMPOUND, REPORTED VALUE
rows = [
    ("CC(O)CC(=O)O (stereo not drawn) [beta-hydroxybutyrate]", 1.03),
    ("CC(=O)O [acetate]", 1.05),
    ("CC(O)CCO (stereo not shown)", 1.02),
    ("CCCCC(=O)O [valerate]", 0.97),
]

====

tested on: A549 lung cancer cells; assay: Cancer cell survival (CellTiter-Glo), A549; type: cell-based; details: Homo sapiens, 316 μM, 72 h, read-out: Cell survival at given concentration
Label class 1 when viability at 316 µM is strictly below 80%; otherwise label class 0.

# SMILES TEXT, CAT
records = [
    ("O=C[C@H](O)[C@@H](O)[C@@H](O)CO", "class 0"),
    ("O=c1cc(-c2ccc(O)cc2)oc2cc(O)cc(O)c12", "class 1"),
    ("O=c1cc(-c2ccc(O)c(O)c2)oc2cc(O)cc(O)c12", "class 1"),
    ("Oc1ccc(C=Cc2cc(O)cc(O)c2)cc1", "class 1"),
    ("O=c1c(O)c(-c2cc(O)c(O)c(O)c2)oc2cc(O)cc(O)c12", "class 0"),
]

====

tested on: A-431 skin cancer cells; test: Cancer cell survival (CellTiter-Glo), A-431; type: cell-based; details: Homo sapiens; A-431 cells; 3 μM; 72 h; read-out: Cell survival at given concentration

# COMPOUND, viability at 3 µM / %
measured = [
    ("O=c1c(O)c(-c2cc(O)c(O)c(O)c2)oc2cc(O)cc(O)c12", 102),
    ("O=C[C@H](O)[C@@H](O)[C@@H](O)CO", 103),
    ("Oc1cc(O)c2c(c1)O[C@H](c1cc(O)c(O)c(O)c1)[C@H](O)C2 [EGC, epigallocatechin]", 102),
    ("O=c1cc(-c2ccc(O)cc2)oc2cc(O)cc(O)c12", 102),
    ("O=c1cc(-c2ccc(O)c(O)c2)oc2cc(O)cc(O)c12", 101),
    ("Oc1ccc(C=Cc2cc(O)cc(O)c2)cc1", 102),
]

====

system: A549 lung cancer cells; assay: Cancer cell survival (CellTiter-Glo), A549; assay type: cell-based; conditions: 72 h, Table 7.1
The entries below are paired with their reported IC50.
PARAMETER: IC50 (µM)

# MOLECULE, RESULT UNITS, REPORTED VALUE
rows = [
    ("O=C(O[C@@H]1Cc2c(O)cc(O)cc2O[C@@H]1c1cc(O)c(O)c(O)c1)c1cc(O)c(O)c(O)c1 [EGCG, epigallocatechin gallate]", "µM", 67.4),
    ("O=c1oc2cc(O)ccc2c2cc(O)c(O)cc12", "µM", 93.5),
]

====

tested on: HCT 116 colorectal cancer cells; experiment: Cancer cell survival (CellTiter-Glo), HCT 116; format: cell-based; settings: Homo sapiens; HCT 116 cells; 100 μM; 72 h; read-out: Cell survival at given concentration
Label yes (1) when viability at 100 µM is strictly below 2%; otherwise label no (0).

# COMPOUND, CAT
data = [
    ("O=c1cc(-c2ccc(O)cc2)oc2cc(O)cc(O)c12", "no (0)"),
    ("Oc1ccc(C=Cc2cc(O)cc(O)c2)cc1", "yes (1)"),
    ("Oc1cc(O)c2c(c1)O[C@H](c1cc(O)c(O)c(O)c1)[C@H](O)C2 [EGC, epigallocatechin]", "yes (1)"),
    ("O=C[C@H](O)[C@@H](O)[C@@H](O)CO", "no (0)"),
    ("O=c1c(O)c(-c2cc(O)c(O)c(O)c2)oc2cc(O)cc(O)c12", "yes (1)"),
]

====

test system: AGS stomach cancer cells; test: Cancer cell survival (CellTiter-Glo), AGS; format: cell-based; set-up: unit not given here; conditions: 3 mM

# COMPOUND, Cell survival at given concentration
rows = [
    ("CC(O)CC(=O)O (stereo not drawn) [beta-hydroxybutyrate]", 1.03),
    ("CCCCC(=O)O [valerate]", 0.97),
    ("CC(=O)O [acetate]", 1.03),
    ("CC(O)CCO (stereo not shown) [butanediol]", 1.02),
]

====

tested on: A-431 skin cancer cells; test: Cancer cell survival (CellTiter-Glo), A-431; type: cell-based; parameters: unit not given here; details: A-431 cells; 10 mM; 72 h
The entries below are paired with their reported Cell survival at given concentration.

# COMPOUND, Cell survival at given concentration
rows = [
    ("CCCCC(=O)O [valerate]", 0.71),
    ("CC(O)CC(=O)O (stereo not drawn) [beta-hydroxybutyrate]", 1.01),
    ("CC(=O)O [acetate]", 0.99),
    ("CC(O)CCO (stereo not shown)", 1.01),
]
